# test: Metabolic stability in mouse liver microsomes
# recorded-conditions: mouse, microsomes, pH 7.4
parameter-measured: half-life at 50 μM (h)
Enter your answer as a number in h; do not include the unit.

Item CCCNC1CN(c2ccnc(N)n2)C1.O.O=C(O)/C=C/C(=O)O [14d] has what recorded half-life at 50 μM?
2.18
